Biological target: Androgen Receptor (Homo sapiens)
Construct: endogenous in cells; host or cells: VCaP cells
Sequence (P10275 whole entry): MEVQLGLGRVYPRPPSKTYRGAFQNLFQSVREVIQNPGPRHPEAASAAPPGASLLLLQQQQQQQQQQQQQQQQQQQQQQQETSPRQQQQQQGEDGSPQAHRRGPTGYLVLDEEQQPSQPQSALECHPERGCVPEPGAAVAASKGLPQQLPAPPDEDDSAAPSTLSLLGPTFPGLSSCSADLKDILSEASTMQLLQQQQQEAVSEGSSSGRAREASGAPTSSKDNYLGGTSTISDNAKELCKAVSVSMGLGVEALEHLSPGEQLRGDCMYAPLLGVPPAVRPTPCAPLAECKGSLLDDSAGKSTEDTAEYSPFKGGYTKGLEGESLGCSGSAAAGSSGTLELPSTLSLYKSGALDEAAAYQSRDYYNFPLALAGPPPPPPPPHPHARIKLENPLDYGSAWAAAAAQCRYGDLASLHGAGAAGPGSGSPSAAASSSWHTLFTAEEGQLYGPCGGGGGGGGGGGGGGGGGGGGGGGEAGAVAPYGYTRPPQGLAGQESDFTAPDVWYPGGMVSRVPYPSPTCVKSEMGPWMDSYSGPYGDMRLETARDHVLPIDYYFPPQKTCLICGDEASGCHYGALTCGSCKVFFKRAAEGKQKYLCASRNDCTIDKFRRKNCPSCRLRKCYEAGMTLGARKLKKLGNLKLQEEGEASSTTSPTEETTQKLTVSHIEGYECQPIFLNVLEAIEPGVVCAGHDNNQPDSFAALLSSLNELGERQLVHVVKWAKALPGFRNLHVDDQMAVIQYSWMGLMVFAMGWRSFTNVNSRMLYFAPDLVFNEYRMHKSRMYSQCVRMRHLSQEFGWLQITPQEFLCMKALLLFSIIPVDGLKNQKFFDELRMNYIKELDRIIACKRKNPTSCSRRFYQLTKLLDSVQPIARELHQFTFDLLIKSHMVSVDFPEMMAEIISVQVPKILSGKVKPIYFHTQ
Assay: Androgen Receptor ELISA assay (PathScan AR ELISA) in VCaP cells: AR degradation, Dmax and DC50
Format: cell-based
Details: VCaP, VCaP cells; Table 35; read-out: VCaP Dmax (%)
Procedure: 1. Androgen Receptor ELISA Assay. The protocols used with VCaP cells are described below. The androgen receptor ELISA assay was performed using PathScan AR ELISA (Cell Signaling Catalog #12850) according to the following assay steps: […]
# Dmax annotations

Cc1ncsc1-c1ccc([C@H](C)NC(=O)[C@@H]2C[C@@H](O)CN2C(=O)[C@@H](NC(=O)COCCC2CCN(c3ccc(C(=O)N[C@H]4C(C)(C)[C@H](Oc5ccc(C#N)c(Cl)c5)C4(C)C)cc3)CC2)C(C)(C)C)cc1 [Example 456] :: > 71%
CC(C)(C)[C@H](NC(=O)COCCCCCNc1ccc(C(=O)N[C@H]2C(C)(C)[C@H](Oc3ccc(C#N)c(Cl)c3)C2(C)C)cc1)C(=O)N1C[C@H](O)C[C@H]1C(=O)NCc1ccc(-n2ccnn2)cc1 [Example 526] :: 51 to 70%

# input Give its Dmax value. Item: Cc1ncsc1-c1ccc(CNC(=O)[C@@H]2C[C@@H](O)CN2C(=O)[C@@H](NC(=O)COCCCCCNc2ccc(C(=O)N[C@H]3C(C)(C)[C@H](Oc4ccc(C#N)c(Cl)c4)C3(C)C)cc2)C(C)(C)C)cn1 [Example 516]
# output > 71%

# input // query: CC(C)(C)[C@H](NC(=O)COCCCCCNc1ccc(C(=O)N[C@H]2C(C)(C)[C@H](Oc3ccc(C#N)c(Cl)c3)C2(C)C)cc1)C(=O)N1C[C@H](O)C[C@H]1C(=O)NCc1ccc(-c2scnc2C#N)cc1 [Example 521]
# output 51 to 70%

# input // query: Cc1ncsc1-c1ccc(CNC(=O)[C@@H]2C[C@@H](O)CN2C(=O)[C@@H](NC(=O)COCCOc2ccc(-c3c(F)cc(C(=O)N[C@H]4C(C)(C)[C@H](Oc5ccc(C#N)c(Cl)c5)C4(C)C)cc3F)cc2)C(C)(C)C)cc1 [Example 543]
# output > 71%

# input // query: CC(C)(C)[C@H](NC(=O)COCCOc1ccc(-c2ccc(C(=O)N[C@H]3C(C)(C)[C@H](Oc4ccc(C#N)c(Cl)c4)C3(C)C)cc2)cc1)C(=O)N1C[C@H](O)C[C@H]1C(=O)NCc1ccc(C#N)cc1 [Example 550]
# output > 71%

# input // query: Cc1ncsc1-c1ccc(CNC(=O)[C@@H]2C[C@@H](O)CN2C(=O)[C@@H](NC(=O)COCCN2CCC(c3ccc(C(=O)N[C@H]4C(C)(C)[C@H](Oc5ccc(C#N)c(Cl)c5)C4(C)C)cc3)CC2)C(C)(C)C)cc1 [Example 525]
# output 51 to 70%

# input // query: Cc1ncsc1-c1ccc([C@H](C)NC(=O)[C@@H]2C[C@@H](O)CN2C(=O)[C@@H](NC(=O)COCCCCCNc2ccc(C(=O)N(C)[C@H]3C(C)(C)[C@H](Oc4ccc(C#N)c(Cl)c4)C3(C)C)cc2)C(C)(C)C)cc1 [Example 473]
# output 26 to 50%

# input // query: Cc1ncsc1-c1ccc(CNC(=O)[C@@H]2C[C@@H](O)CN2C(=O)[C@@H](NC(=O)COCCNc2ccc(-c3c(F)cc(C(=O)N[C@H]4C(C)(C)[C@H](Oc5ccc(C#N)c(Cl)c5)C4(C)C)cc3F)cn2)C(C)(C)C)cc1 [Example 513]
# output > 71%
